assay-system: NA reuptake (Rattus norvegicus)
Construct: isolated from the hypothalamus of male rat brains; from tissue; host or cells: rat brain synaptosomes (P2 fraction), hypothalamus of male rats
Sequence (Q63380 1-617): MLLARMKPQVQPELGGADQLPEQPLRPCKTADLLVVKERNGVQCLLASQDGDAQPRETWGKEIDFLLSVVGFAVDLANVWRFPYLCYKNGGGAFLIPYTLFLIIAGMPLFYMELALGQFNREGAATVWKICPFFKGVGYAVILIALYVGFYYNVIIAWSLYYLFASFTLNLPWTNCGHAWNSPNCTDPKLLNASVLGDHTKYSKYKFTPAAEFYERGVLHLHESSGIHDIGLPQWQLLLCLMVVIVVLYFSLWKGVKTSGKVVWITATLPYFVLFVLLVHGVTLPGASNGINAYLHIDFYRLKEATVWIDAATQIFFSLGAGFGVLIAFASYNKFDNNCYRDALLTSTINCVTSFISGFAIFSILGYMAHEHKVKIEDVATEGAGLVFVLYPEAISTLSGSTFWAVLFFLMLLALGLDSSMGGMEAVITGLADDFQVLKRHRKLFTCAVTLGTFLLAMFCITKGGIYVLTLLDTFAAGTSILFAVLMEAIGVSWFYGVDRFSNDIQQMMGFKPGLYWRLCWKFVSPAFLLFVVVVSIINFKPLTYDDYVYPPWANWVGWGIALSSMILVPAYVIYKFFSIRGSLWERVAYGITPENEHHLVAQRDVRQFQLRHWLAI
measurement-protocol: Inhibition of NA reuptake in rat brain synaptosomes (hypothalamus, P2 fraction)
Type: biochemical
experimental-conditions: 10 μmol./l
Is inhibition at 10 µM at least 40%? Then yes. If not, no.

1. CN(C)CC1CCSc2ccccc2C1(O)c1cccnc1 (centres unmarked)
yes
2. CN(C)CC1=C(c2cccnc2)c2ccccc2SCC1
no
3. CN(C)CC1=C(c2cccnc2)c2ccccc2CC1
no
4. CN(C)CC1=C(c2cccnc2)c2ccccc2CCC1
no
5. CN(C)CC1Cc2cc(C(F)(F)F)ccc2C1(O)c1cccnc1 (centres unmarked)
no

###

assay-system: 5-HT reuptake (Rattus norvegicus, UniProt P31652)
Sequence (P31652 whole entry): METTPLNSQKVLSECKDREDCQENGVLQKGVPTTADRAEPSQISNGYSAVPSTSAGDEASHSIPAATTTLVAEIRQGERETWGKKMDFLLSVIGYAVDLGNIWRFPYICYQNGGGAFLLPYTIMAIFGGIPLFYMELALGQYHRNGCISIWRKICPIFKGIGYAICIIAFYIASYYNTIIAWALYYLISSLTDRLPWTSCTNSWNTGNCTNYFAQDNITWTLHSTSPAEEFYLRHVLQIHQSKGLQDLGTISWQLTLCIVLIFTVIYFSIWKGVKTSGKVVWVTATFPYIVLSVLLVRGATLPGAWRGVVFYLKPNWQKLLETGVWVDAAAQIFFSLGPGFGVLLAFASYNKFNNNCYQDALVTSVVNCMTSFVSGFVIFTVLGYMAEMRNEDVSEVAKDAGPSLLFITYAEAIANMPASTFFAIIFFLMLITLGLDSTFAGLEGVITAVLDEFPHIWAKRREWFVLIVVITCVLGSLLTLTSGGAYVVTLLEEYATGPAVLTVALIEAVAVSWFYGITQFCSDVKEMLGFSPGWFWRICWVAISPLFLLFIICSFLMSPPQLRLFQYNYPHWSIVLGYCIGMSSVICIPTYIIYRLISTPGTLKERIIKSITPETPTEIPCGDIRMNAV
measurement-protocol: biochemical
experimental-conditions: read-out: Inhibition of 5-HT reuptake (% inhibition at 10 μmol./l), 10 μmol./l; rat synaptosomes
Source text: In order to be able to carry out these in vitro studies, synaptosomes were freshly isolated from areas of rat brain. […] For NA reuptake, these vesicular particles were isolated from the hypothalamus of male rat brains, and for 5HT reuptake, they were isolated from the medulla+pons region. The IC50 values were obtained with the aid of the “Figure P” computer program (Version 6.0, Biosoft, Cambridge, England). […] The “Ligand” computer program (Version 4, Biosoft, England) was used to show KD values.
In this section, each of the molecules is paired with its reported inhibition at 10 µM.
parameter-measured: inhibition at 10 µM (%)

1. CN(C)CC1Cc2cc(F)ccc2C1(O)c1cccnc1 (stereo not drawn) [Example 18]
56
2. CN(C)CC1=C(c2cccnc2)c2ccccc2OCC1 [Example 26]
50
3. CN(C)CC1CCS(=O)(=O)c2ccccc2C1(O)c1cccnc1 (stereo not drawn) [Example 17]
57

Cited source: patent US8278338B2
